- Tgt: ER (Homo sapiens (Human))
- Sequence (P03372 whole entry): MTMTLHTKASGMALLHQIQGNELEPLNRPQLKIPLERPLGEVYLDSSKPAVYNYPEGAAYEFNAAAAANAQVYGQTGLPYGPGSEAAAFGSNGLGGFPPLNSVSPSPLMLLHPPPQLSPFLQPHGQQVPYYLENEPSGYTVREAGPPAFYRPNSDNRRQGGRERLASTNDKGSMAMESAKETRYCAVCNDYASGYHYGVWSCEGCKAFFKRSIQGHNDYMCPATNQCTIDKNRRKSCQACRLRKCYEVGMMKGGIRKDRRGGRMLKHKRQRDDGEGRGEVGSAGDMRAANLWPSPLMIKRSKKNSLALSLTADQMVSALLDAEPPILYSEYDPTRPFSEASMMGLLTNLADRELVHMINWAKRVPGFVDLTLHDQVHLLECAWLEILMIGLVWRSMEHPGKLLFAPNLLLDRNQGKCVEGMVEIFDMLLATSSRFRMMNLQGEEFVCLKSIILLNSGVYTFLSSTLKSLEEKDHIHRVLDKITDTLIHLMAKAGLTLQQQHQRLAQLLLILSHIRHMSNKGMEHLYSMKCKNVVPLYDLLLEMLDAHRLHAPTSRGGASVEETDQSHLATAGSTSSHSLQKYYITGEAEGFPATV
- Assay explanation: In-cell western (ICW) ER degradation assay in T47D cells
- Type: cell-based
- Run parameters: ER degradation, 16 hrs
- Method: ERa degradative activity of compounds can be assessed in MCF-7 and T47D Cells. MCF-7 and T47D cell are seeded and are subsequently treated with the compounds at certain concentrations (e.g., 0.02 to 300 nM). DMSO can be used as vehicle control. Cells are fixed and are blocked with Intercept (PBS) Blocking Buffer (e.g., Li-COR, Odyssey Blocking Buffer), and are stained with ER (e.g., 1:500, Cell signaling) primary antibody for overnight at cold room. […]
Structures can show the parent of a compound that is named as a salt.

| Compound | DC50 |
| --- | --- |
| O=C1CC[C@@H](N2Cc3cc4c(cc3C2=O)OCC2CN(CC3CCC5(CC3)CN(c3ccc([C@H]6c7ccc(O)cc7OC[C@H]6c6ccccc6)cc3)C5)CCN42)C(=O)N1 (stereo in doubt) [Compound A120] | < 1 nM |
| COc1cc(N2CCC(CN3CCN4c5ccc6c(c5OC[C@H]4C3)CN(C3CCC(=O)NC3=O)C6=O)CC2)c(F)cc1[C@H]1c2ccc(O)cc2OC[C@H]1c1ccccc1 (stereo partly drawn) [Compound A105] | 1 to 10 nM |
| O=C1CCC(N2C(=O)c3cc4c(cc3C2=O)CN(C(=O)CN2CC3(CCN(c5ccc([C@H]6c7ccc(O)cc7OC[C@H]6c6ccccc6)cc5)CC3)C2)C4)C(=O)N1 (single isomer, unassigned) [Compound A55, formate] | > 100 nM |
| O=C1CC[C@H](N2Cc3c(ccc4c3OC[C@H]3CN(CC5CCC6(CC5)CN(c5ccc([C@@H]7c8ccc(O)cc8OC[C@@H]7c7ccccc7)cc5)C6)CCN43)C2=O)C(=O)N1 (single isomer, unassigned) [Compound A115] | < 1 nM |
| O=C1CC[C@H](N2Cc3c(ccc4c3OC[C@H]3CN(CC5CC6(CCN(c7ccc([C@@H]8c9ccc(O)cc9OC[C@@H]8c8ccccc8)cc7)CC6)C5)CCN43)C2=O)C(=O)N1 (single isomer, unassigned) [Compound A90] | < 1 nM |
| O=C1CC[C@H](N2Cc3c(ccc4c3OC[C@H]3CN(CC5CC6(CCN(c7ccc([C@H]8c9ccc(O)cc9OC[C@H]8c8ccccc8)cc7)CC6)C5)CCN43)C2=O)C(=O)N1 (single isomer, unassigned) [Compound A50] | < 1 nM |
| O=C1CCC(N2Cc3c(ccc4c3OC[C@H]3CN(CC5CCN(c6ncc([C@H]7c8ccc(O)cc8OC[C@H]7c7ccccc7)cn6)CC5)CCN43)C2=O)C(=O)N1 (single isomer, unassigned) [Compound A35] | 1 to 10 nM |
| COc1cc(N2CCC(CN3CCN(c4cnc(C(=O)NC5CCC(=O)NC5=O)cc4OC)CC3)CC2)ccc1[C@H]1c2ccc(O)cc2OC[C@H]1c1ccccc1 (single isomer, unassigned) [Compound A127] | < 1 nM |
| O=C1CCN(c2ccc(N3CCC(CN4CC5(CCN(c6ccc([C@@H]7c8ccc(O)cc8OC[C@@H]7c7ccccc7)cc6)CC5)C4)CC3)cc2)C(=O)N1 (single isomer, unassigned) [Compound A87] | 1 to 10 nM |
